Test system: M14 melanoma
method.description: NCI-60 one-dose screen, 48 h
condition: 10 µM unless noted
This is part of a sample that, as a whole, favours compounds with a hit. Of some 83,000 tested, about 20% had one in any assay. Activity calls are given as the source filed them. How the source made its calls: active means growth percent below 10; inactive means the rest.
Permitted responses: True = active, False = inactive

# molecule, answer.label
measured = [
    ("CCN(CC)CCCNc1cccc2c(C)cc(OC)nc12", "False"),
    ("CCCCn1c(C)nc2ccc(Nc3nc(Cl)nc4nc[nH]c34)cc21", "False"),
    ("O=C(NCC(c1ccsc1)N1CCCCCC1)c1ccc(C(F)(F)F)cc1 (stereo not given)", "False"),
    ("COc1ccc(-c2nn(-c3cccc(Cl)c3)cc2/C=C2\\C(=N)N(c3ccccc3)N=C2N)cc1", "True"),
]

Now let's try a different one.
Dear colleague, could you share the recorded outcome for COc1ccc(C2CC(c3cccc(Nc4ccnc5cc(Cl)ccc45)c3)=NN2c2ccccc2)cc1 (stereo not given) when you have a moment?
False
